In this section, each of the molecules is paired with its reported Total Cell Count.
- System: Fibroblast
- method description: Multiplex assay against human fibroblast
- Format: toxicity, cell-based
- assay setup: 12 h, 10 µM, compound concentration 10 uM, replicate 1
Number, no unit, nothing else.

CCCCC1=NC2(CCCC2)C(=O)N1Cc1ccc(-c2ccccc2-c2nnn[nH]2)cc1 [IRBESARTAN]: 151
CC(=O)Nc1cccc2c1c(Sc1ccc(Cl)cc1)c(C)n2CC(=O)O [AZD1981]: 133
CN[C@@H](C)C(=O)N[C@H](C(=O)N1CCC[C@H]1C(=O)Nc1snnc1-c1ccccc1)C1CCCCC1 [GDC-0152]: 144
Cc1onc(-c2ccccc2Cl)c1C(=O)N(C)c1ccc(Cl)cc1: 144
CCCOc1ccc2[nH]cc(C3=CCNCC3)c2n1.Cl: 133

Exam item: Entry `N#Cc1c(Oc2cccc(OS(=O)(=O)CCCC(F)(F)F)c2)cccc1C(F)(F)F` : reported Total Cell Count = ?
Marked response: 180

Exam item: Next record, please: `C[C@H](N)COC(=O)[C@@H](CCCCN)NC(=O)Cc1c(-c2ccc3ccccc3c2)[nH]c2c1ccc1ccccc12`
Marked response: 183

Exam item: One more molecule: CC(C)COc1ccc(CNC(=O)N(Cc2ccc(F)cc2)C2CCN(C)CC2)cc1 [PIMAVANSERIN]
Marked response: 185

Exam item: CC(C)c1noc(N2CCC(COc3ccc(-c4ccc(S(C)(=O)=O)cc4)nc3)CC2)n1 [GSK-1292263] ?
Marked response: 162

Exam item: Next up: `CCc1cc2cc(NS(=O)(=O)c3ccc(C#N)cc3)ccc2n(CC)c1=O`
Marked response: 133

====

- System: U2OS
- method description: Multiplex assay against U2OS
- Assay type: toxicity, cell-based
- assay setup: human, 48 h, 10 µM, compound concentration 10 uM, replicate 1
Exam item: assign Met to entries whose Population Pyknosed Nuclei (%) is below 9% and Not met to entries at or above 9%. Note that a value of exactly 9% receives Not met.

Cl.N=C(N)NC(=O)Cc1c(Cl)cccc1Cl [GUANFACINE HYDROCHLORIDE]: Not met
N#Cc1cc(F)cc(-c2nc(-c3ccc(F)cn3)no2)c1: Met
CN1CCN(c2cc(-c3ccccc3)nc(N)n2)CC1: Met
N#Cc1c(Oc2cccc(OS(=O)(=O)CCCC(F)(F)F)c2)cccc1C(F)(F)F: Not met
O=C1[C@H](Cc2ccc(O)cc2)N2C(=O)CCN(C(=O)NCc3ccccc3)[C@H]2CN1Cc1cccc2ccccc12: Not met
CN(C)C(=O)Cn1cc(-c2ccc(-c3cncc4ccccc34)cc2)cn1: Not met

Exam item: Decide: Population Pyknosed Nuclei (%) of Br.CS(=O)(=O)Nc1c(O)ccc2c1CCCC2C1=NCCN1 (centres undefined) strictly below 9%?
Marked response: Met

====

Listing of recorded Total Cell Count by entry.
- Tested on: U2OS
- method description: Multiplex assay against U2OS
- Type: toxicity, cell-based
- assay setup: human, 12 h, 1 µM, compound concentration 1 uM, replicate 1
Respond numerically, and do not add a unit to the figure.

These solved cases illustrate the format of a correct answer.
CCCCCC(O)/C=C/[C@H]1C(=O)CC(O)C1C/C=C\CCCC(=O)O (stereo partly drawn): 203
Cc1onc(-c2ccccc2Cl)c1C(=O)N(C)c1ccc(Cl)cc1: 277
O=C(CCCc1ccccc1)Nc1nc2ccccc2c(=O)s1: 274
CC(C)c1noc(N2CCC(COc3ccc(-c4ccc(S(C)(=O)=O)cc4)nc3)CC2)n1: 177
COC[C@@H](c1ccc(C(F)(F)F)cc1)N1CCN(C2(C)CCN(C(=O)c3c(C)ncnc3C)CC2)C[C@@H]1C.O=C(O)/C=C\C(=O)O [VICRIVIROC MALEATE]: 261

Exam item: Quick one: Total Cell Count for Cl.NCCc1ccc(O)c(O)c1 [DOPAMINE HYDROCHLORIDE] ?
Marked response: 237

Exam item: Follow-up item: `Cc1cnc(-c2cc(N3CCN(C(=O)CCS(C)(=O)=O)CC3)ncc2Cl)c(C)c1`
Marked response: 183

Exam item: Proceed to `CCCCC1=NC2(CCCC2)C(=O)N1Cc1ccc(-c2ccccc2-c2nnn[nH]2)cc1`
Marked response: 233

// provenance: ChEMBL document CHEMBL5058577
